This listing pairs binders with measured glycan array binding signal (z-score).
- target system: Gal3S(b1-3)[Fuc(a1-4)]GlcNAc
- protocol summary: glycan array binding signal (z-score within array); higher = stronger binding
- study conditions: glycan notation: IUPAC condensed, linker removed
About 410 targets per protein were measured; listed, in parts, are those with the strongest signals and a random draw of the rest.

binder: LSECtin (Homo sapiens), Q6UXB4 (protein) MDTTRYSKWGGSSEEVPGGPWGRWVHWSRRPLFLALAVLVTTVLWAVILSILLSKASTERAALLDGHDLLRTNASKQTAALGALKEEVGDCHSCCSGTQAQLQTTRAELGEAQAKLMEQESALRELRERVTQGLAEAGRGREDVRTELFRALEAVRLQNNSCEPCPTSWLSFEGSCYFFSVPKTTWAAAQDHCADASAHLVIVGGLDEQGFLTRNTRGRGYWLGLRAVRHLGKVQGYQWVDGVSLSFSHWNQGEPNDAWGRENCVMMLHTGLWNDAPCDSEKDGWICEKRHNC
glycan array binding signal (z-score): -0.158
//
binder: Adiponectin (Rattus norvegicus), Q8K3R4 (protein) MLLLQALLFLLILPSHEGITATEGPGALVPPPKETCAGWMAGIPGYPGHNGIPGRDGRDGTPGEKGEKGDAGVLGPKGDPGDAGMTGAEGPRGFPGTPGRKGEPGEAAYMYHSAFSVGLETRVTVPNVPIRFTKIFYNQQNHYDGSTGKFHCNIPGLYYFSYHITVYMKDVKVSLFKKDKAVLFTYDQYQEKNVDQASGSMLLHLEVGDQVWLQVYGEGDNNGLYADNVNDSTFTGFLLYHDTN
glycan array binding signal (z-score): 1.13
